assay: Plasma pharmacokinetics, cycle 1 day 1, noncompartmental; type: in vivo, Japanese patients; conditions: human, plasma; 400 mg oral, cycle 1 day 1, n = 9; mean ± SD
MEASUREMENT KIND: AUC(0-inf) (ng·h/mL)
Please give a number only; it is taken to be in ng·h/mL.

Exam item: Given the entry C[C@]1(c2nc3c(C(N)=O)cccc3[nH]2)CCCN1 , report its measured AUC(0-inf).
Marked response: 29500

* * *

test: Plasma pharmacokinetics, cycle 1 day 1, noncompartmental; format: in vivo, Japanese patients; details: human, plasma; 400 mg oral, cycle 1 day 1, n = 12; mean ± SD; read-out: AUC0–8
MEASUREMENT KIND: AUC(0-t)
Don't forget the unit after the value.

Exam item: Given the entry C[C@]1(c2nc3c(C(N)=O)cccc3[nH]2)CCCN1 [veliparib] , report its measured AUC(0-t).
Marked response: 16600 ng·h/mL

Hey, just so you know, these numbers are from paper PMC5581522.
